Test system: Polygonum convolvulus (POLCO)
Experiment: Pre-emergence herbicide efficacy at 80 g/ha, greenhouse pot test
Assay type: in vivo
Settings: visual scoring vs untreated control after about 3 weeks
Each record here notes measured Pre-emergence efficacy against Polygonum convolvulus (POLCO).
Respond numerically; units are % and should not be typed.

compound	value.reported
Cc1cc(C)c(-n2cc(I)cn2)c(Oc2ncc(F)cn2)n1	90
Cc1cc(C)c(-c2cc(C(F)(F)F)on2)c(Oc2ncc(Cl)cn2)n1	90
Cc1cc(C)c(-c2cc(C(F)F)no2)c(Oc2ncc(Cl)cn2)n1	90
Cc1cc(C)c(-c2cc(C(F)F)no2)c(Oc2ncc(C(F)(F)F)cn2)n1	80
Cc1cc(C)c(-c2cc(C(F)F)on2)c(Oc2ncc(F)cn2)n1	90

Prompt: Which measured Pre-emergence efficacy against Polygonum convolvulus (POLCO) value corresponds to `Cc1cc(C)c(-c2cc(C(F)F)no2)c(Oc2ccc(F)cn2)n1` ?
Completion: 80

Prompt: I am curious: what Pre-emergence efficacy against Polygonum convolvulus (POLCO) value has been reported for `Cc1cc(C)c(-n2cc(Br)cn2)c(Oc2ncc(F)cn2)n1` ?
Completion: 100

Prompt: Query: Pre-emergence efficacy against Polygonum convolvulus (POLCO); subject: Cc1cc(C)c(-c2cc(C(F)Cl)no2)c(Oc2ncc(Cl)cn2)n1 (stereo not drawn)
Completion: 90

Prompt: Which Pre-emergence efficacy against Polygonum convolvulus (POLCO) reading was recorded for the compound `Cc1cc(C)c(-c2cc(C(F)F)on2)c(Oc2ncc(Cl)cn2)n1` ?
Completion: 90
